Listing of recorded log10 of kon by entry.
biological target: HCMV UL141 (Human cytomegalovirus, UniProt Q6RJQ3); construct: we expressed and purified the full-length recombinant UL141 (amino acids 30–300); made in house; experiment: biochemical; type: binding; details: UL141 immobilized, substance as analyte; 1:1 Langmuir model
Sequence (Q6RJQ3 30-300): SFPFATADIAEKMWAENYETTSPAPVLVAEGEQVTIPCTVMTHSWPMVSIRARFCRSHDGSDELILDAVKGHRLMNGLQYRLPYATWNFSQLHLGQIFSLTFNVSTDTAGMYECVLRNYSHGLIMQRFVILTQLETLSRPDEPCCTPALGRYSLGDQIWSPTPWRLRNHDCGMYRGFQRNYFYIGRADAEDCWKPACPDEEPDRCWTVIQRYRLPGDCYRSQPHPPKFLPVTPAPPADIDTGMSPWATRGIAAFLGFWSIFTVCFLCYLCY
metric: log10 of kon (log10 of the value in M⁻¹ s⁻¹)

compound	log10 of kon
CCC1C(O)C(O)CN1Cc1ccc(I)cc1 (centres unmarked)	4.73
CC1C(O)C(O)CN1Cc1ccc(I)cc1 (centres unmarked)	3.48
CC(O)C1C(O)C(O)CN1Cc1ccc(I)cc1 (centres unmarked)	3.40
C[C@H](O)[C@H]1[C@@H](O)[C@@H](O)CN1Cc1ccc(I)cc1	3.80
CC(O)C1C(O)C(O)CN1Cc1ccccc1 (centres unmarked)	2.77

###

biological target: HCMV UL141 (Human cytomegalovirus, UniProt Q6RJQ3); construct: we expressed and purified the full-length recombinant UL141 (amino acids 30–300); made in house; experiment: biochemical; format: binding; settings: KD, binding to UL141, SPR
pKd: −log10 of the molar value.
Listing of recorded pKd by entry.
metric: pKd

compound	target entity	measured number
CC1C(O)C(O)CN1Cc1ccc(I)cc1 (stereo not drawn) [Compound 20]	HCMV UL141 (Human cytomegalovirus, UniProt Q6RJQ3)	4.54
C[C@H](O)[C@H]1[C@@H](O)[C@@H](O)CN1Cc1ccc(I)cc1 [Compound 14]	HCMV UL141 (Human cytomegalovirus, UniProt Q6RJQ3)	4.62
CC(O)C1C(O)C(O)CN1Cc1ccccc1 (stereo not drawn) [Compound 15]	HCMV UL141 (Human cytomegalovirus, UniProt Q6RJQ3)	3.70

###

biological target: HCMV UL141 (Human cytomegalovirus, UniProt Q6RJQ3); construct: we expressed and purified the full-length recombinant UL141 (amino acids 30–300); made in house; assay: biochemical; type: binding; details: UL141 immobilized, substance as analyte
I would appreciate it if you labelled entries 1 when Rmax is 20 or higher, otherwise -1.

compound	assigned category
CC(O)C1C(O)C(O)CN1Cc1ccccc1 (centres unmarked)	1
CC1C(O)C(O)CN1Cc1ccc(I)cc1 (centres unmarked)	1
C[C@H](O)[C@H]1[C@@H](O)[C@@H](O)CN1Cc1ccc(I)cc1	1
CCC1C(O)C(O)CN1Cc1ccc(I)cc1 (centres unmarked)	-1

###

Listing of recorded log10 Kd by entry.
target: HCMV UL141 (Human cytomegalovirus, UniProt Q6RJQ3); construct: we expressed and purified the full-length recombinant UL141 (amino acids 30–300); made in house; experiment: biochemical; assay type: binding; conditions: KD, UL141 immobilized (ligand), substance in solution (analyte); 1:1 Langmuir model; 25 °C
metric: log10 Kd (log10 of the value in µM)

compound	log10 Kd
CC1C(O)C(O)CN1Cc1ccc(I)cc1 (centres unmarked) [Compound 20]	1.46
CC(O)C1C(O)C(O)CN1Cc1ccccc1 (centres unmarked) [Compound 15]	2.30
C[C@H](O)[C@H]1[C@@H](O)[C@@H](O)CN1Cc1ccc(I)cc1 [Compound 14]	1.38
CCC1C(O)C(O)CN1Cc1ccc(I)cc1 (centres unmarked) [Compound 18]	0.47
CC(O)C1C(O)C(O)CN1Cc1ccc(I)cc1 (centres unmarked) [Compound 17]	1.31

###

target: HCMV UL141 (Human cytomegalovirus); construct: we expressed and purified the full-length recombinant UL141 (amino acids 30–300); made in house; assay: biochemical; type: binding; conditions: UL141 immobilized, substance as analyte; 1:1 Langmuir model
1 (yes) if koff is below 0.1 s⁻¹. 0 (no) if not; exact matches included in 0 (no).

compound	assigned category
CC(O)C1C(O)C(O)CN1Cc1ccccc1 (centres unmarked)	0 (no)
CCC1C(O)C(O)CN1Cc1ccc(I)cc1 (centres unmarked)	0 (no)
CC1C(O)C(O)CN1Cc1ccc(I)cc1 (centres unmarked)	1 (yes)
C[C@H](O)[C@H]1[C@@H](O)[C@@H](O)CN1Cc1ccc(I)cc1	0 (no)
CC(O)C1C(O)C(O)CN1Cc1ccc(I)cc1 (centres unmarked)	1 (yes)

###

tested on: A549 cells; assay: Cytotoxicity on A549 cells (data not shown); assay type: cell-based
metric: concentration at which cytotoxicity with apoptotic properties begins

substance smiles	result
CCCCCCCCCCCCCCO[C@@H]1O[C@H](CO)[C@H](O)[C@H](O)[C@H]1O	≥ 5000 ng/mL
CCCCCCCCCCCCCCO[C@@H]1O[C@H](CO)[C@@H](O)[C@H](O)[C@H]1O	≥ 5000 ng/mL
CCCCCCCCCCCCN1C[C@H](O)[C@H](O)[C@@H]1CO	≥ 5000 ng/mL
CCCCCCCCCCCCCCO[C@H]1O[C@H](CO)[C@@H](O)[C@H](O)[C@@H]1O	≥ 5000 ng/mL
